Measured values drawn from patent US7524964B2 for this set.

Target: human CB1 receptor (Homo sapiens, UniProt P21554)
Sequence (P21554 whole entry): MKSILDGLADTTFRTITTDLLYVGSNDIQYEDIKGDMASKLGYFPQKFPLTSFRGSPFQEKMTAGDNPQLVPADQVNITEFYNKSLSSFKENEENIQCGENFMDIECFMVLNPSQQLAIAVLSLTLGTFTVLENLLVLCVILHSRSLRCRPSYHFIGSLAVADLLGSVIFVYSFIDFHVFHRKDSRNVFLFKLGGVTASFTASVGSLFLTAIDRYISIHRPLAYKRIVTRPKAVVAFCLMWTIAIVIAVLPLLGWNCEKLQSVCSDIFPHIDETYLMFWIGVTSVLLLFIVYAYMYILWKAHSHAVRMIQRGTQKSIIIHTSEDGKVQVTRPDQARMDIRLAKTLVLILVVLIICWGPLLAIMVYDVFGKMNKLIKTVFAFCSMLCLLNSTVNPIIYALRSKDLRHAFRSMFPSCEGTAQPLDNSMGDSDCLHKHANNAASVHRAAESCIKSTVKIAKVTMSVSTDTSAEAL
Assay: Functional cell-based assay, CB1 receptor mediated change in CRE β-gal expression (adenylate cyclase activity)
Parameters: expressed in transfected cells; host or cells: SK-NC cells [sic], pcDNA3-CRE β-gal and pcDNA3 CB-1 (human)
VALUE_TYPE: pEC50
Note on pEC50: it is the negative log10 of concentration, concentration in mol/L.

Exercise: Quick one: pEC50 of C[C@@H](NC(=O)c1nn(Cc2ccccc2)c2c1CS(=O)(=O)CC2)c1ccccc1 ?
Key: 5.10

---

Target: human CB1 receptor (Homo sapiens)
Assay: Binding assay, cannabinoid CB1 receptor ([3H]-CP-55,940 displacement)
Design: expressed in transfected cells; host or cells: SK-N-MC cells, pcDNA3 CB-1 (human), semi-purified membranes
Settings: test concentration 0.2 μM (superscript a); read-out: CB1 binding percent inhibition
// 0.0 strictly below 50% in inhibition at 0.2 µM; 1.0 otherwise

Exercise: Identify whether the reported inhibition at 0.2 µM of the following compound is 50% or greater: C[C@H](NC(=O)c1c2c(nn1-c1ccc(Cl)cc1Cl)/C(=C/c1ccc(F)cc1)CSC2)c1ccccc1
Key: 0.0

Exercise: Identify whether the reported inhibition at 0.2 µM of the following compound is 50% or greater: CN1CCN(NC(=O)c2nn(-c3ccc(Cl)cc3Cl)c3c2CSC/C3=C\c2ccc(F)cc2)CC1
Key: 0.0

Exercise: Identify whether the reported inhibition at 0.2 µM of the following compound is 50% or greater: C[C@H](NC(=O)c1c2c(nn1-c1ccc(Cl)cc1Cl)/C(=C/c1ccc(F)cc1)CSC2)C1CCCCC1
Key: 0.0

Exercise: Identify whether the reported inhibition at 0.2 µM of the following compound is 50% or greater: O=C(N[C@@H]1CCC[C@H]1O)c1nn(-c2ccc(Cl)cc2Cl)c2c1CSC/C2=C\c1ccc(F)cc1
Key: 1.0

Exercise: Identify whether the reported inhibition at 0.2 µM of the following compound is 50% or greater: O=C(N[C@@H]1CCC[C@H]1O)c1nn(-c2ccc(Cl)cc2Cl)c2c1CS(=O)(=O)C/C2=C\c1ccc(F)cc1
Key: 0.0

Exercise: Identify whether the reported inhibition at 0.2 µM of the following compound is 50% or greater: C[C@H](NS(=O)(=O)/C=C/c1nn(-c2ccc(F)cc2F)c2c1CS(=O)(=O)CC2Cc1cccc(F)c1)c1ccccc1 (stereo partly drawn)
Key: 0.0

Exercise: Identify whether the reported inhibition at 0.2 µM of the following compound is 50% or greater: O=S(=O)(/C=C/c1nn(-c2ccc(F)cc2F)c2c1CSCC2Cc1cccc(F)c1)NN1CCCCC1 (stereo not drawn)
Key: 0.0

Exercise: Identify whether the reported inhibition at 0.2 µM of the following compound is 50% or greater: C[C@@H](NC(=O)c1c2c(nn1-c1ccc(Cl)cc1Cl)/C(=C/c1ccc(F)cc1)CSC2)c1ccccc1
Key: 1.0

Exercise: Identify whether the reported inhibition at 0.2 µM of the following compound is 50% or greater: O=C(N[C@@H]1CCCC[C@H]1O)c1nn(-c2ccc(Cl)cc2Cl)c2c1CSC/C2=C\c1ccc(F)cc1
Key: 1.0

Exercise: Identify whether the reported inhibition at 0.2 µM of the following compound is 50% or greater: C[C@@H](NS(=O)(=O)/C=C/c1nn(-c2ccc(F)cc2F)c2c1CSCC2Cc1cccc(F)c1)C1CCCCC1 (stereo partly drawn)
Key: 1.0

Exercise: Identify whether the reported inhibition at 0.2 µM of the following compound is 50% or greater: O=C(N[C@H]1CCCC[C@@H]1O)c1nn(-c2ccc(Cl)cc2Cl)c2c1CS(=O)(=O)C/C2=C\c1ccc(F)cc1
Key: 1.0

Exercise: Identify whether the reported inhibition at 0.2 µM of the following compound is 50% or greater: O=C(NN1CCN(CCO)CC1)c1nn(-c2ccc(Cl)cc2Cl)c2c1CS(=O)(=O)C/C2=C\c1ccc(F)cc1
Key: 0.0

Exercise: Identify whether the reported inhibition at 0.2 µM of the following compound is 50% or greater: O=C(NCc1ccccn1)c1nn(-c2ccc(Cl)cc2Cl)c2c1C[S+]([O-])C/C2=C\c1ccc(F)cc1 (stereo not drawn)
Key: 0.0

Exercise: Identify whether the reported inhibition at 0.2 µM of the following compound is 50% or greater: C[C@H](NS(=O)(=O)/C=C/c1nn(-c2ccc(Cl)cc2Cl)c2c1CSCC2Cc1cccc(Cl)c1)c1ccccc1 (stereo partly drawn)
Key: 0.0
